Some compounds, each annotated with its measured SARS-CoV-2 infection rate.
Tested on: Vero E6 infected with SARS-CoV-2
Assay: SARS-CoV-2 infection rate relative to infected DMSO; higher = more infection, active = 60 or less
Details: 24 h
Reply numerically in %, unit not repeated.

c1ccc(Oc2cccnc2)cc1 (10 µM) = 103
COc1ccccc1CN[C@H]1CCCN[C@H]1c1ccccc1 (10 µM) = 86

Fill blank: measured SARS-CoV-2 infection rate of the compound CCCCCN(CCCOC)C(=O)[C@@H](CCC(=O)O)NC(=O)c1ccc(Cl)c(Cl)c1 [dexloxiglumide] (10 µM) is ____.
107

Find the recorded SARS-CoV-2 infection rate belonging to CN(C)c1cc(CNCC(C)(C)C)c(O)c2c1C[C@H]1C[C@H]3[C@H](N(C)C)C(O)=C(C(N)=O)C(=O)[C@@]3(O)C(O)=C1C2=O [omadacycline] (10 µM) and report it.
97.5

Report SARS-CoV-2 infection rate for NC1=NC(=O)N([C@H]2C[C@H](O)[C@@H](CO)O2)CN1 (10 µM) please.
106

----------
System: Vero E6 infected with SARS-CoV-2
Test: inhibition of SARS-CoV-2 cytopathic effect; higher = more antiviral protection, active = above 15
Details: 833.33 nM; 48 h
Quantity: inhibition of SARS-CoV-2 cytopathic effect (%)
Use % as the unit, but write only the number.

Some solved cases for reference:
CC(Cc1ccccc1)NCCC(c1ccccc1)c1ccccc1 (centres undefined) = -1.29
COc1cc(C[C@@H](CO)[C@H](CO)Cc2ccc(O)c(OC)c2)ccc1O [secoisolariciresinol-(-)] = 0.53
CCN1C[C@]2(OC(=O)c3ccccc3NC(C)=O)CC[C@H](OC)[C@@]34[C@@H]2C[C@@H]([C@@H]13)[C@@]1(O)C[C@H](OC)[C@H]2C[C@@H]4[C@]1(O)[C@H]2OC = 0.15
Cc1c(C(=O)Nc2ccc(N3C[C@@H](C)O[C@@H](C)C3)nc2)cccc1-c1ccc(OC(F)(F)F)cc1 = -2.32
Cc1cccc(-c2[nH]c(C(C)(C)C)nc2-c2ccc3c(c2)OCO3)n1 = -5.24

Return reported inhibition of SARS-CoV-2 cytopathic effect; argument: NC(=O)OCC(COC(N)=O)c1ccccc1 [felbamate]
1.06

Which inhibition of SARS-CoV-2 cytopathic effect is reported for this molecule? O=C1c2ccccc2C(=O)C1c1ccc(Br)cc1
1.04

Look up inhibition of SARS-CoV-2 cytopathic effect for this molecule: COC1=C(OC)C(=O)C(CCCCCCCCCCO)=C(C)C1=O
0.64

Reported inhibition of SARS-CoV-2 cytopathic effect for NC(=O)N1c2ccccc2CC(=O)c2ccccc21 [oxcarbazepine] : what is it?
-0.85

----------
Test system: Vero E6 infected with SARS-CoV-2
Assay: inhibition of SARS-CoV-2 cytopathic effect; higher = more antiviral protection, active = above 15
Conditions: 10000 nM; 48 h
Quantity: inhibition of SARS-CoV-2 cytopathic effect (%)
Answer with a number only, understood to be in %.

O=C[C@H](O)[C@@H](O)[C@H](O)CO [xylose] = -4.41

Entry C=CCc1ccc(O)c(-c2ccc(O)c(CC=C)c2)c1 [honokiol] has what inhibition of SARS-CoV-2 cytopathic effect?
-0.26

Entry Clc1cccc(/C=N/N=C/c2cccc(Cl)c2)c1 [3,3'-dichlorobenzaldazine] has what inhibition of SARS-CoV-2 cytopathic effect?
1.46

Returns the measured inhibition of SARS-CoV-2 cytopathic effect for the input compound. Input: CCCC(=O)O[C@]1(C(=O)COC(C)=O)CC[C@H]2[C@@H]3C[C@H](F)C4=CC(=O)C=C[C@]4(C)[C@@]3(F)[C@@H](O)C[C@@]21C [difluprednate]
6.96
